Reported polymerase ribozyme fitness (log ratio) by item:
B1: TPR t1 (parent)
chain: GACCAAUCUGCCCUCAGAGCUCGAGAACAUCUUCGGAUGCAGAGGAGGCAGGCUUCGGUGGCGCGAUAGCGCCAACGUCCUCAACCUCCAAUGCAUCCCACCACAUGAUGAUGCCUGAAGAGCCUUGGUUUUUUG

Variants of: B1
Assay: polymerase ribozyme fitness, log enrichment relative to wild type (log ratio); higher = more active; in vitro selection for triplet polymerase activity
Form rule: numeric answer, no unit written next to it.

variant | polymerase ribozyme fitness (log ratio)
G10A A74G A91C C124G | -0.108

### Prompt So what's the measured polymerase ribozyme fitness (log ratio) for this one? G44C G63U C79U
### Response -1.08

### Prompt Requested field: polymerase ribozyme fitness (log ratio). Item: C34A C53U C114A U129C
### Response -5.56

### Prompt Would you mind telling me what polymerase ribozyme fitness (log ratio) value was observed for C88A A121C ?
### Response 1.66

### Prompt Param item = G48C G77A U130G ; retrieve measured polymerase ribozyme fitness (log ratio).
### Response -2.05

### Prompt Data request, read-out polymerase ribozyme fitness (log ratio), for C8G G71A C89A C97U G120C
### Response -1.24

### Prompt Find the recorded polymerase ribozyme fitness (log ratio) belonging to A74U G110C and report it.
### Response -4.41

### Prompt Using the record for C70U A75G , report its polymerase ribozyme fitness (log ratio).
### Response -0.621

### Prompt Give the measured polymerase ribozyme fitness (log ratio) of U54G C85G U133A .
### Response -1.09

### Prompt Report polymerase ribozyme fitness (log ratio) for A46G A105C please.
### Response -1.62

### Prompt GET /values?readout=polymerase ribozyme fitness (log ratio)&item= G47A G69U C86A C97U C115U C124G U125C
### Response -0.107

### Prompt # lookup: polymerase ribozyme fitness (log ratio) of U9C A83C
### Response 0.121

### Prompt Bench note: what polymerase ribozyme fitness (log ratio) did U54A C72U C97U show?
### Response -1.24
